# target.desc: p38 MAPKα isoform (MAPK14) (Homo sapiens (Human), UniProt Q16539)
# Sequence (Q16539 whole entry, canonical isoform): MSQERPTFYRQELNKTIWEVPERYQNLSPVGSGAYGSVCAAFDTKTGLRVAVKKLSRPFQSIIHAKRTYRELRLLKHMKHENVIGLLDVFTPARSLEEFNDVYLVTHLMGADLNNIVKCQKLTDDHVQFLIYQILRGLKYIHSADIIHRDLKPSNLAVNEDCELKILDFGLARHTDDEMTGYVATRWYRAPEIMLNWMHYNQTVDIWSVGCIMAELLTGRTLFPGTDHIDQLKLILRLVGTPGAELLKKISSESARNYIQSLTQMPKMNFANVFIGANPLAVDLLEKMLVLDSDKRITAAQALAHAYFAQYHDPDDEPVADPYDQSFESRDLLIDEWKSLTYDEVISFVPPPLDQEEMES
# test.details: p38 MAPKα enzyme inhibition (FRET, Z-LYTE, Method 2)
Checkbox rule: IC50 lower than 60 nM = T; IC50 not lower than 60 nM = F.

Is IC50 strictly under 60 nM for the entry COc1cc(Nc2cc(Oc3ccc(NC(=O)Nc4cc(C(C)(C)C)cc(S(C)(=O)=O)c4OC)c4ccccc34)ccn2)cc(C(=O)NCCN2CCOCC2)c1 [Example 54] ?
F

Is IC50 strictly under 60 nM for the entry COc1c(NC(=O)Nc2ccc(Oc3ccnc(NCc4ccccn4)c3)c3ccccc23)cc(C(C)(C)C)cc1P(C)(C)=O [38(e)] ?
T

Is IC50 strictly under 60 nM for the entry COc1c(NC(=O)Nc2ccc(Oc3ccnc(Nc4ccn(C)n4)c3)c3ccccc23)cc(C(C)(C)C)cc1P(C)(C)=O [Example 36] ?
T

Is IC50 strictly under 60 nM for the entry COc1cc(Nc2cc(Oc3ccc(NC(=O)Nc4cc(C(C)(C)C)cc([S+](C)[O-])c4OC)c4ccccc34)ccn2)cc(OC)c1 (stereo not drawn) [Example 40] ?
F

Is IC50 strictly under 60 nM for the entry COc1cc(Nc2cc(Oc3ccc(NC(=O)Nc4cc(C(C)(C)C)cc(CC(N)=O)c4OC)c4ccccc34)ccn2)ccc1C(=O)NCCN1CCOCC1 [Example 70] ?
T

Is IC50 strictly under 60 nM for the entry COc1cc(Nc2cc(Oc3ccc(NC(=O)Nc4cc(C(C)(C)C)cc(CC(N)=O)c4OC)c4ccccc34)ccn2)ccn1 [38(k)] ?
F
